Cited source: ChEMBL document CHEMBL1129259

Molecular target: Melatonin receptor (Gallus gallus, UniProt P49288+P51050+P49285)
Experiment: In vitro binding affinity against melatonin receptor using 2-[125I]iodomelatonin (0.05 nM) and chicken brain membranes
Design: species or system Membrane
recorded.endpoint: Ki (nM)
Report as a plain number; the unit nM is understood.

# Ki of "CC(=O)NC1Cc2cccc3cccc(c23)C1" = 195

# Ki of "CC(=O)NCCc1c[nH]c2ccc(O)cc12" = 1640

# Ki of COc1c2c(cc3ccccc13)CCC(NC(C)=O)C2 (stereo not drawn) = 273

# Ki of COc1ccc2ccc(O)c3c2c1CC(NC(C)=O)C3 (stereo not drawn) = 22.8

# Ki of CCC(=O)NC1Cc2cccc3ccc(OC)c(c23)C1 (stereo not drawn) = 6

# Ki of "COc1ccc2ccc(OC)c3c2c1CC(NC(C)=O)C3" = 0.7

# Ki of COc1ccc2cccc3c2c1CC(NC(C)=O)C3 (stereo not drawn) = 28.7

# Ki of COc1cc2ccccc2c2c1CC(NC(C)=O)CC2 (stereo not drawn) = 168
